Source listed as PubChem BioAssay (NCI).

Test system: 786-0 renal
procedure-summary: NCI tumour cell line growth inhibition, 48 h
measured-attribute: GI50

Reference set, count: 5
molecule: CS(=O)(=O)Nc1cncc(-c2ccc3ncnc(Nc4ccc(F)c(Cl)c4)c3c2)c1
GI50: 2700 nM
//
molecule: CC(=O)Nc1ccc2c(c1)C(c1ccccc1Cl)=Nc1c(n[nH]c1C)N2
GI50: 7790 nM
//
molecule: CC(=O)c1ccc2c(c1)c1cc(C(C)=O)ccc1n2CCNC(C)C
GI50: 456 nM
//
molecule: COc1ccc(C2CC(c3cccc(Nc4ccnc5cc(Cl)ccc45)c3)=NN2C=O)cc1 (stereo unspecified)
GI50: 665 nM
//
molecule: CCOC(=O)c1cc(C(=O)c2cc(OC)c(OC)c(OC)c2)n2ncccc12
GI50: 2170 nM

Please look at the following molecule next.
I would be grateful if you could share the reported GI50 for CCC(C)[C@H]1O[C@]2(CC[C@@H]1C)C[C@@H]1C[C@@H](C/C=C(\C)[C@@H](OC3C[C@H](OC)C(O[C@H]4C[C@H](OC)[C@@H](O)[C@H](C)O4)[C@H](C)O3)[C@@H](C)/C=C/C=C3\CO[C@@H]4[C@H](O)C(C)=C[C@@H](C(=O)O1)[C@]34O)O2 (stereo partly specified) .
3660 nM
